TARGET ENTITY: T1, recombinant human CD63 extracellular loop 2 expressed with a C-terminal Myc-Myc-hexahistidine (human)
T1 construct: also called hCD63 EC loop 2-MMH; human CD63 EC loop 2-MMH
T1 sequence (chain, as listed by the source limits assumed): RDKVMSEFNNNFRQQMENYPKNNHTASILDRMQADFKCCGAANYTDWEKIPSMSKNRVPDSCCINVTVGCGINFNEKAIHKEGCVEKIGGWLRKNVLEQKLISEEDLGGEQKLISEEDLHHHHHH
TEST PROTOCOL: SPR Biacore, mAb captured, 25C
REPORTED ENDPOINT: 100 nM Ag Bound (RU)
Give the quantity in RU, number only.

Below, each entry is followed by its recorded 100 nM Ag Bound (RU) result.
- H2M12454N (antibody, V domains shown, also called H2bM12454N) VH: QVQLVESGGGLVKPGGSLRLSCAVSGFTYTDYFMNWIRQAPGKGLEWVSYISNSGAIKYYADSVKGRFTISRDNAKNSLYLQMNGLRADDTAVYYCVRDPRSYYGFDYWGQGTLVTVSS VL: DIQMTQSPSSLSASVGDRVTITCRASQSISNFLNWYQQKPGKAPRLLIYGASNLQSGVPSRFSGGGSGTDFTLTISSLQPADFATYYCQQSFSNPPVTFGQGTRLEIN: 61
- H1M12388N (antibody, V domains shown) VH: QVQLEESGGGVVKAGGSLRLSCAASGFTFSDYYINWIRQAPGKGLEWVSYINNGGYTIYYADSVKGRFTMSRDNAKNSVYLQMNGLRAEDTAFYYCVRDPRSYYGFDYWGQGTLVTVSS VL: DIQMTQSPSSLSASVGDRVTITCRASQSISRFLHWYQQKPGKAPKLLIYGASSLQSGVPSRFSGSGSGTDFTLTISTLQPEDFATYYCQQSYSTPPITFGQGTRLEIK: 59

q: Name the recorded 100 nM Ag Bound (RU) of the binder listed here: H2M12387N (antibody, V domains shown, also called H2aM12387N) VH: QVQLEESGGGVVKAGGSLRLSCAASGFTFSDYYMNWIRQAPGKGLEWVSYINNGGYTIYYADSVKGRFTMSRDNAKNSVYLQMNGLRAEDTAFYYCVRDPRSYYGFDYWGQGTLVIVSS VL: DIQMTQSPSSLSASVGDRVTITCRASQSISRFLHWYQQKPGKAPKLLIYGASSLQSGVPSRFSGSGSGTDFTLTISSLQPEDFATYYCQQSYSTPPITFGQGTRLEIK
a: 74

q: Identify measured 100 nM Ag Bound (RU) associated with H1M12451N (antibody, V domains shown) VH: QVQLQESGPGLMKPSETLSLTCTVSGGSFSSYYWNWIRQSPGKGLEWIGYIRYSGDTNYKPSLKSRFTISIDTSKNLFSLRLKSVTAADTAVYYCARMGLGSDAFDIWGQGTMVTVSS VL: EIVLTQSPGTLSLSPGERATLSCRASQSVNNNYLAWYQQKPGQAPRLLIYGVFNRATNIPDRFSGSGSGTDFTLTISRLEPEDFAVYYCQQYGSSPWTFGQGTKVEIK
a: 52

q: Give the reported value of 100 nM Ag Bound (RU) for this record: H1M12386N (antibody, V domains shown) VH: QVQLEESGGGVVKAGGSLRLSCVASGFTFSDYYINWIRQAPGKGLEWVSYINNGGYTIYYADSVKGRFTMSRDNAKNSVYLEMNGLRAEDTAFYYCVRDPRSYYGFDYWGQGTLVTVSS VL: DIQMTQSPSSLSASVGDRVTITCRASQSISSYLNWNQQKPGKAPKLLIYVASSLQSGVPSRFSGSGSGTDFTLTISGLQPEDFAPYYCQQSYITPPITFGQGTRLDIK
a: 65

q: Specify reported 100 nM Ag Bound (RU) for the binder shown: H2M12452N (antibody, V domains shown, also called H2aM12452N) VH: QVQLQEAGPGLVKPSETLSLTCIVSGGSISGFYWNWIRQPPGKGLEWIGYFLYSGTIDYNPSLKSRVTISVDTSKNQFFLKLSFVTAADTAVYYCVRMGLGANAFDIWGRGTMVTVSS VL: EIVLTQSPGTLSLSPGERATLSCRASQTVSRSFLAWYQQKPGQAPRLLIYGPSSRATGIPDRFSGSGSGTDFTLTISRLEPEDFAVYYCQQYGNSPWTFGQGTKVEIK
a: 35
